Experiment: Example 1: multiple-dose randomized 3-way crossover PK study of two IV tramadol regimens vs 100 mg oral q6h
Details: human, plasma, iv, 50 mg, AUCtau n, 50 mg IV regimen (h 0, 2, 4, then q4h to h 44); last dosing interval; mean
Counter-ions that a name gives are not always drawn.
readoutName: AUC (ng·h/mL)
Report only the number, with the unit ng·h/mL understood.

Return reported AUC; argument: COc1cccc([C@]2(O)CCCC[C@H]2CN(C)C)c1 (racemic) [Tramadol, hydrochloride]
2230

---

Assay: Example 1: multiple-dose randomized 3-way crossover PK study of two IV tramadol regimens vs 100 mg oral q6h
Conditions: human, plasma, iv, 50 mg, plasma concentration, Mean, 50 mg IV Dose (h 0, 2, 4, then q4h to h 44); Time 44.0 hr
Where a name gives a salt, the structure may show the parent alone.
readoutName: concentration at 44 h

Return reported concentration at 44 h; argument: COc1cccc([C@]2(O)CCCC[C@H]2CN(C)C)c1 (racemic) [Tramadol, hydrochloride]
424 ng/mL

---

Assay: Example 1: multiple-dose randomized 3-way crossover PK study of two IV tramadol regimens vs 100 mg oral q6h
Conditions: human, plasma, iv, 50 mg, plasma concentration, Mean, 50 mg IV Dose (h 0, 2, 4, then q4h to h 44); Time 45.0 hr
Where a name gives a salt, the structure may show the parent alone.
readoutName: concentration at 45 h (ng/mL)
Report only the number, with the unit ng/mL understood.

Return reported concentration at 45 h; argument: COc1cccc([C@]2(O)CCCC[C@H]2CN(C)C)c1 (racemic) [Tramadol, hydrochloride]
610

---

Experiment: Example 1: multiple-dose randomized 3-way crossover PK study of two IV tramadol regimens vs 100 mg oral q6h
Conditions: human, plasma, po, 100 mg, C6, 100 mg oral q6h to h 42, mean
Counter-ions that a name gives are not always drawn.
readoutName: concentration at 6 h (ng/mL)
Report only the number, with the unit ng/mL understood.

Return reported concentration at 6 h; argument: COc1cccc([C@]2(O)CCCC[C@H]2CN(C)C)c1 (racemic) [Tramadol, hydrochloride]
197

---

Test: Example 1: multiple-dose randomized 3-way crossover PK study of two IV tramadol regimens vs 100 mg oral q6h
Conditions: human, plasma, po, 100 mg, C48 (T48), 100 mg oral q6h to h 42, mean
Where a name gives a salt, the structure may show the parent alone.
readoutName: concentration at 48 h (ng/mL)
Report only the number, with the unit ng/mL understood.

Return reported concentration at 48 h; argument: COc1cccc([C@]2(O)CCCC[C@H]2CN(C)C)c1 (racemic) [Tramadol, hydrochloride]
497

---

Assay: Example 1: multiple-dose randomized 3-way crossover PK study of two IV tramadol regimens vs 100 mg oral q6h
Conditions: human, plasma, iv, 50 mg, plasma concentration, Mean, 50 mg IV Dose (h 0, 2, 4, then q4h to h 44); Time 32.0 hr
Where a name gives a salt, the structure may show the parent alone.
readoutName: concentration at 32 h
Put your answer as a value accompanied by its unit after it.

Return reported concentration at 32 h; argument: COc1cccc([C@]2(O)CCCC[C@H]2CN(C)C)c1 (racemic) [Tramadol, hydrochloride]
422 ng/mL

---

Assay: Example 1: multiple-dose randomized 3-way crossover PK study of two IV tramadol regimens vs 100 mg oral q6h
Settings: human, plasma, iv, 50 mg, plasma concentration, Mean, 50 mg IV Dose (h 0, 2, 4, then q4h to h 44); Time 44.5 hr
Structures can show the parent of a compound that is named as a salt.
readoutName: concentration at 44.5 h (ng/mL)
Report only the number, with the unit ng/mL understood.

Return reported concentration at 44.5 h; argument: COc1cccc([C@]2(O)CCCC[C@H]2CN(C)C)c1 (racemic) [Tramadol, hydrochloride]
655
